This section presents compounds with their documented CC50 values.
- test.protocol: Cytotoxicity against human MT4 cells assessed as inhibition of cell viability by measuring reduction in absorbance at OD540 by MTT assay
- Assay type: cell-based
State the answer as a number, implicitly in µM.

smiles.entry: FC(F)(F)c1ccccc1Oc1ccnc(NC2CCN(Cc3n[nH]c4ccccc34)CC2)n1
endpoint.name: CC50
data.value: 15
//
smiles.entry: N#Cc1cccc(Oc2ccnc(NC3CCN(Cc4n[nH]c5ccccc45)CC3)n2)c1
endpoint.name: CC50
data.value: 32

Query: CC50; subject: `Clc1ccc(Oc2ccnc(NC3CCN(Cc4n[nH]c5ccccc45)CC3)n2)cc1` 30
